assay: Saturation solubility of compound in PEG400/transcutol/benzyl alcohol/water mixture using amorphous form of sample; format: physicochemical
quantity_kind: solubility thermodynamic

COC(=O)Cc1ccc(Nc2cc(Nc3ccccc3Cl)c(C(N)=O)cn2)nc1 = 5400 µg/mL

Next:
Complete the entry with solubility thermodynamic for CCOC(=O)Cc1ccc(Nc2cc(Nc3ccccc3Cl)c(C(N)=O)cn2)nc1
8700 µg/mL

---

biological target: JAK3/JAK1 (Homo sapiens, UniProt P23458+P52333); experiment: Inhibition of JAK1/3-mediated STAT5 phosphorylation in human M07E cells preincubated for 30 mins followed by IL-15 stimulation measured after 15 mins by flow cytometry; format: cell-based
Sequence (P52333 whole entry): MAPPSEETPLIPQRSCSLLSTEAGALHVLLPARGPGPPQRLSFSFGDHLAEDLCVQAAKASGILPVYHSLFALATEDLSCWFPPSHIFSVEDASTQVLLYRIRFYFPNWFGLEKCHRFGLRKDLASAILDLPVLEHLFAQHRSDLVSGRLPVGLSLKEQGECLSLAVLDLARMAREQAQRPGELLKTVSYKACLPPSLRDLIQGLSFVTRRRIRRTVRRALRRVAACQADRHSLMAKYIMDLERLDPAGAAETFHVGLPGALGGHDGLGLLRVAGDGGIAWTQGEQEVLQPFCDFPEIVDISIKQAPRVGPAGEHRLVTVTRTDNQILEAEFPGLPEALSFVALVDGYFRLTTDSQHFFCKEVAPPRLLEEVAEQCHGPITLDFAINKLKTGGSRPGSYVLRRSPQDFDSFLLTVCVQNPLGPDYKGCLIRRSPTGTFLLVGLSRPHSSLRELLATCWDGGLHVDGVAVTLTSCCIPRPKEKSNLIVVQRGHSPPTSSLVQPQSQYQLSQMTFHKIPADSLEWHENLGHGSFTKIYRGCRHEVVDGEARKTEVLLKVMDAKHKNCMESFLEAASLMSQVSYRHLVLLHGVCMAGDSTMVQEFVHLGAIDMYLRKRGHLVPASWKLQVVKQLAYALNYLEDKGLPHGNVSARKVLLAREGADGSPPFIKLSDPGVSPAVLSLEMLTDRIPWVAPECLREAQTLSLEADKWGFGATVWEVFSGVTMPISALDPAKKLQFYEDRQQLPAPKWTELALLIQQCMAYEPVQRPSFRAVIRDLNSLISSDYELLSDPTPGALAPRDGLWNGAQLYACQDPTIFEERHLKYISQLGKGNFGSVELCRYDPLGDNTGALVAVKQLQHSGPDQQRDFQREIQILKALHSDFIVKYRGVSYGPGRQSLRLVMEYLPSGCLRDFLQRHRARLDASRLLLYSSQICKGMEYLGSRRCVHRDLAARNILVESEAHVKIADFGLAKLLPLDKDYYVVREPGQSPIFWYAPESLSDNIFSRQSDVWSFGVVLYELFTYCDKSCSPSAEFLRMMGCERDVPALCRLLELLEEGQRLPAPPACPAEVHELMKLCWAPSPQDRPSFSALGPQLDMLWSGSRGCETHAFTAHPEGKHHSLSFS
Sequence (P23458 whole entry): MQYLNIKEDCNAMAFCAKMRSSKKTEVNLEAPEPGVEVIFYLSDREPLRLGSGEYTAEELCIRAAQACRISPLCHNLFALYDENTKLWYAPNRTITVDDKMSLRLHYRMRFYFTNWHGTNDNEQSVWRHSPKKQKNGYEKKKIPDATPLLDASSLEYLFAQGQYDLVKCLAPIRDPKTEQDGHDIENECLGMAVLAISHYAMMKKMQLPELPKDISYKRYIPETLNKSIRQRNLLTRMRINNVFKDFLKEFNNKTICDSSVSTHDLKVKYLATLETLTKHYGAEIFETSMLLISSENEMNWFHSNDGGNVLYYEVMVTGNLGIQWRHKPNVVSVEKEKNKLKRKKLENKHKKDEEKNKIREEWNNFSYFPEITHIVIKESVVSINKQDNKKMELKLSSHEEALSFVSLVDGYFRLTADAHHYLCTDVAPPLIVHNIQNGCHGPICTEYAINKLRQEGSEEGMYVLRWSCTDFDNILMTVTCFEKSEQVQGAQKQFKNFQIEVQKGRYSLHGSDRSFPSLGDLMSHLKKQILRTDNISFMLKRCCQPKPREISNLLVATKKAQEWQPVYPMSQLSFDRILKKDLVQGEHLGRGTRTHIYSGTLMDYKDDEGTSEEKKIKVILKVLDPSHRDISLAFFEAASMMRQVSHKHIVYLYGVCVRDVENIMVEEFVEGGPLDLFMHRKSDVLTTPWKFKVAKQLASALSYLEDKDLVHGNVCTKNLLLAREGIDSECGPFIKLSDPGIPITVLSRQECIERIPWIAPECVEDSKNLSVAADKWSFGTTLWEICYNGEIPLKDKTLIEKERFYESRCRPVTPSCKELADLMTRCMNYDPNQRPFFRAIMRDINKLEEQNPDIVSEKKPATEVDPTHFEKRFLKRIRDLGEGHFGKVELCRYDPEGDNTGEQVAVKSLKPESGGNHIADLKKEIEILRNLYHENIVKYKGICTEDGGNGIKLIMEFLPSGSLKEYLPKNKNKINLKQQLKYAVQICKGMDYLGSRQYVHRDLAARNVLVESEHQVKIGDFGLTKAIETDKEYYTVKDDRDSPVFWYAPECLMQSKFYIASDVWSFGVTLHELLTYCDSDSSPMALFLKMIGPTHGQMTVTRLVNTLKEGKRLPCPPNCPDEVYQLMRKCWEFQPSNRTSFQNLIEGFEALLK
Returns: string. Value is Fulfilled if measured IC50 is below 100 nM, and Not fulfilled if it is greater than or equal to it.

COC(=O)Cc1ccc(Nc2cc(Nc3ccccc3Cl)c(C(N)=O)cn2)nc1 = Fulfilled
COc1ccccc1Nc1cc(Nc2ccc(CC(=O)O[C@@H]3CCOC3)cn2)ncc1C(N)=O = Fulfilled
CCOC(=O)CCc1ccc(Nc2cc(Nc3ccccc3Cl)c(C(N)=O)cn2)nc1 = Not fulfilled
NC(=O)c1cnc(Nc2ccc(CC(=O)O)cn2)cc1Nc1ccccc1Cl = Not fulfilled

Strictly below 100 nM in IC50? CC(C)OC(=O)Cc1ccc(Nc2cc(Nc3ccccc3Cl)c(C(N)=O)cn2)nc1
Fulfilled

Is 100 nM strictly greater than the molecule's reported IC50? molecule: CCOC(=O)c1ccc(Nc2cc(Nc3ccccc3Cl)c(C(N)=O)cn2)nc1
Not fulfilled

Item COC[C@@H](C)OC(=O)Cc1ccc(Nc2cc(Nc3ccccc3OC)c(C(N)=O)cn2)nc1 : IC50 beneath 100 nM, strictly?
Not fulfilled

Is the reported IC50 for CCOC(=O)Cc1ccc(Nc2cc(Nc3ccccc3OC)c(C(N)=O)cn2)nc1 strictly below 100 nM?
Fulfilled

Item COc1ccccc1Nc1cc(Nc2ccc(CC(=O)O)cn2)ncc1C(N)=O : IC50 beneath 100 nM, strictly?
Not fulfilled

Quick check: IC50 of CCOC(=O)COc1ccc(Nc2cc(Nc3ccccc3Cl)c(C(N)=O)cn2)nc1 under 100 nM?
Not fulfilled

---

molecular target: Non-receptor tyrosine-protein kinase TYK2 (Homo sapiens, UniProt P29597)
Sequence (P29597 whole entry): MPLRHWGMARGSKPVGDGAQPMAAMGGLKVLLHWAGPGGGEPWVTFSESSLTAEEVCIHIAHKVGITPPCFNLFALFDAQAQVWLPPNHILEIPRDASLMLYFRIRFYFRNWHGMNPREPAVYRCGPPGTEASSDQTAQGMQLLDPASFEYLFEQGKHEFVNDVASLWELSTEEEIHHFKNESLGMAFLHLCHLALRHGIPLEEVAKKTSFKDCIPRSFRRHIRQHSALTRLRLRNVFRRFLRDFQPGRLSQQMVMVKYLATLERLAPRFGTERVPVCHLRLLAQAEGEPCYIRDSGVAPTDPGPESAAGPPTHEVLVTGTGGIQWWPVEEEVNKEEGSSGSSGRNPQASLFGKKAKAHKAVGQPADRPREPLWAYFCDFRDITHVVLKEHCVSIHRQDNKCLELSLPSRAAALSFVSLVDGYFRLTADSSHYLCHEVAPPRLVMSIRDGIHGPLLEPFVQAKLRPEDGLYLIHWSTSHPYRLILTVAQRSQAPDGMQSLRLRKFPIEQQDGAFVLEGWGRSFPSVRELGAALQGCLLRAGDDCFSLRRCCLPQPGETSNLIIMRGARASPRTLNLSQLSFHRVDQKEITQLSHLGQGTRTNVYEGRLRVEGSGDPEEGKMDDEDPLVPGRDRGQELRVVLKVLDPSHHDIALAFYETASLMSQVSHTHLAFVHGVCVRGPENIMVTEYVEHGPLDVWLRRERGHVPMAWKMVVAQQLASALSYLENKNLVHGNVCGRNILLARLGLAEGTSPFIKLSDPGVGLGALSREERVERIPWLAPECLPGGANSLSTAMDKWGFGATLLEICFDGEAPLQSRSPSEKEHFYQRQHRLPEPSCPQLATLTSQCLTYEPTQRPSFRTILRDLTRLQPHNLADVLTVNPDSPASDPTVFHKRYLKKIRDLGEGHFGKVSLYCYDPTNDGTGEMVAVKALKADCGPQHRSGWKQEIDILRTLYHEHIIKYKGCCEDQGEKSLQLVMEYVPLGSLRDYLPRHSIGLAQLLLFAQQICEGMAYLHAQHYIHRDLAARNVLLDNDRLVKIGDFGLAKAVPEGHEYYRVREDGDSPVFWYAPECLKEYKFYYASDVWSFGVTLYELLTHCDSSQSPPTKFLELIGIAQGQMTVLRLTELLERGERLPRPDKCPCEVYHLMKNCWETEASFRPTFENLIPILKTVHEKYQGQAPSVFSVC
pIC50: −log10 of the molar value.
Label true when pIC50 >= 8; otherwise false.

Answered cases to consult:
CCOC(=O)CCc1ccc(Nc2cc(Nc3ccccc3Cl)c(C(N)=O)cn2)nc1 = false
COCCOC(=O)Cc1ccc(Nc2cc(Nc3ccccc3OC)c(C(N)=O)cn2)nc1 = true
COc1ccccc1Nc1cc(Nc2ccc(CC(=O)O[C@@H]3CCOC3)cn2)ncc1C(N)=O = true
CCOC(=O)Cc1ccc(Nc2cc(Nc3ccccc3OC)c(C(N)=O)cn2)nc1 = false

Proceed to the following item.
Can COc1ccccc1Nc1cc(Nc2ccc(CC(=O)O[C@H]3CCOC3)cn2)ncc1C(N)=O be said to have pIC50 at or above 8?
true

---

assay: Stability of compound in fresh human skin explant using Franz diffusion cell model assessed as compound concentration in dermis at 0.5 % administered topically preincubated overnight followed by fresh media replacement in receiver fluid without compound and subsequently stimulated with IL-4/IL-13 measured after 40 hrs by LC-MS/MS analysis; assay type: ADME, tissue-based, Skin of body; conditions: topical or ocular, read-out: Ct
quantity_kind: concentration at 40 h, 0.5 % (µM)
One number for each entry, in µM.

For the compound Cc1cccc(Nc2cc(Nc3ccccc3Cl)c(C(N)=O)cn2)n1 , give its reported concentration at 40 h, 0.5 %.
33
